Data origin: PubChem BioAssay AID624330

Field: inhibition. Provide a value for each of the compounds that follow.
# ASSAYED TARGET: Rac GTPase-activating protein 1 (Homo sapiens)
# EXPERIMENTAL PROTOCOL: blockers of MgcRacGAP-driven Rac1 GTP hydrolysis – biochemical, ADP Hunter fluorescence, primary and confirmatory, confirmation (AID 624330);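 also: fluorescence reports GDP produced by GAP-driven GTP hydrolysis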
# PROTOCOL CONDITIONS: MgcRacGAP-stimulated Rac1 GTP hydrolysis, at 30 µM, active compounds read high, GST-tagged Rac1 F28L mutant substrate
Screen size: about 340,000 compounds; about 2,100 (0.62%) were called active. The list is a sample of the results. Measured potencies and affinities stand elsewhere.
The reply should be a number in %, with the unit left off.

Log: Rac GTPase-activating protein 1 (Homo sapiens), compound COc1ccc(N(CC(C)C)S(=O)(=O)c2nnc(NC(=O)CC(C)C)s2)cc1 , inhibition = 2.69

Log: Rac GTPase-activating protein 1 (Homo sapiens), compound CS(=O)(=O)NNC(=O)C1Cc2c(ccc3ccccc23)O1 (stereo not drawn) , inhibition = 8.23

Log: Rac GTPase-activating protein 1 (Homo sapiens), compound O=C(N/C(=C/c1ccccc1)C(=O)N1CCCCC1)c1ccccc1 , inhibition = 7.71

Log: Rac GTPase-activating protein 1 (Homo sapiens), compound O=c1c2ccccc2nc(/C=C/c2ccc(O)cc2)n1CCc1ccccc1 , inhibition = 4.64

Log: Rac GTPase-activating protein 1 (Homo sapiens), compound CC1CCc2cc(F)ccc2N1C(=O)CN1C(=O)c2ccccc2C1=O (stereo not drawn) , inhibition = 7.46

Log: Rac GTPase-activating protein 1 (Homo sapiens), compound Cc1ccc(S(=O)(=O)/N=C(/c2ccc(F)cc2)N(C)C)cc1 , inhibition = 8.12

Log: Rac GTPase-activating protein 1 (Homo sapiens), compound Cc1ccc(S(=O)(=O)N2[C@@H](c3ccc(F)cc3)C(C(=O)O)=C[C@H]2CC2CCCC2)cc1 , inhibition = 11

Log: Rac GTPase-activating protein 1 (Homo sapiens), compound Cc1ccc(NC(=O)c2cc(N3C(=O)CCC3=O)ccc2N2CCCCC2)cc1 , inhibition = 5.7

Log: Rac GTPase-activating protein 1 (Homo sapiens), compound CCCCCCCNC(=O)C1(CC2CC(c3ccccc3)=NO2)CCN(C(=O)c2ccccc2)CC1 (stereo not drawn) , inhibition = 7.41

Log: Rac GTPase-activating protein 1 (Homo sapiens), compound Cc1ccccc1OCC(=O)Nc1ccc(N2CCN(C(=O)c3ccco3)CC2)cc1 , inhibition = 10.3

Log: Rac GTPase-activating protein 1 (Homo sapiens), compound CCCCN(CCCC)S(=O)(=O)c1ccc(NS(=O)(=O)c2ccc(NC(C)=O)cc2)cc1 , inhibition = 5.52

Log: Rac GTPase-activating protein 1 (Homo sapiens), compound CC1=NN(c2ccc(Cl)c(C(=O)O)c2)C(=O)C1 , inhibition = 14.9

Log: Rac GTPase-activating protein 1 (Homo sapiens), compound Cn1c(-c2ccc(F)cc2)cnc1NCc1ccccc1 , inhibition = 25.3

Log: Rac GTPase-activating protein 1 (Homo sapiens), compound CCCNC(=O)COC(=O)C1CCN(S(=O)(=O)c2ccc3c(c2)OCCO3)CC1 , inhibition = 2.29

Log: Rac GTPase-activating protein 1 (Homo sapiens), compound CC(C)Sc1oc(-c2ccco2)nc1S(=O)(=O)c1ccc(F)cc1 , inhibition = 9.8

Log: Rac GTPase-activating protein 1 (Homo sapiens), compound O=c1c(Cl)c(N2CCN(c3ccc(F)cc3)CC2)cnn1C12CC3CC(CC(C3)C1)C2 , inhibition = -5.26

Log: Rac GTPase-activating protein 1 (Homo sapiens), compound CCN(Cc1ccccc1)C(=O)C1CCC(CNc2c(N3CCOCC3)c(=O)c2=O)CC1 (stereo not drawn) , inhibition = 4.88

Log: Rac GTPase-activating protein 1 (Homo sapiens), compound C[C@H]1CN([C@@H](C)CO)C(=O)c2cccc(NC(=O)Nc3ccc(F)cc3)c2O[C@@H]1CN(C)Cc1ccc(C(=O)O)cc1 , inhibition = 2.98

Log: Rac GTPase-activating protein 1 (Homo sapiens), compound COc1ccc(NC(=O)c2ccc3c(c2)C(=O)N(CC2CCCO2)C3=O)cc1O (stereo not drawn) , inhibition = 0.29

Log: Rac GTPase-activating protein 1 (Homo sapiens), compound O=C(CSc1nccc(=O)[nH]1)Nc1cccc2ccccc12 , inhibition = 8.22

Log: Rac GTPase-activating protein 1 (Homo sapiens), compound COc1ccccc1-n1c(SCC(=O)N2CCOCC2)nc2ccccc2c1=O , inhibition = -0.91

Log: Rac GTPase-activating protein 1 (Homo sapiens), compound O=C(c1cccs1)N1CCN(Cc2cccnc2)CC1 , inhibition = 30.4

Log: Rac GTPase-activating protein 1 (Homo sapiens), compound O=c1n(-c2ccccc2)c(=O)n2n1CCCC2 , inhibition = -0.32

Log: Rac GTPase-activating protein 1 (Homo sapiens), compound O=C(COC(=O)c1cccnc1Cl)NC1CCCCC1 , inhibition = 4.82

Log: Rac GTPase-activating protein 1 (Homo sapiens), compound CCOc1ccc(NCCC#N)cc1 , inhibition = 30.3

Log: Rac GTPase-activating protein 1 (Homo sapiens), compound CCOc1cc(C(c2c(C)[nH][nH]c2=O)c2c(C)[nH][nH]c2=O)ccc1OCc1ccc([N+](=O)[O-])cc1 , inhibition = -0.47

Log: Rac GTPase-activating protein 1 (Homo sapiens), compound COc1ccc(C=C2C=C(C(C)(C)C)C(=O)C(C(C)(C)C)=C2)cc1OC , inhibition = 15.6

Log: Rac GTPase-activating protein 1 (Homo sapiens), compound O=C1CC(c2cccs2)c2ccc3ccccc3c2N1 (stereo not drawn) , inhibition = 6.36

Log: Rac GTPase-activating protein 1 (Homo sapiens), compound c1ccc(Nc2ccccn2)cc1 , inhibition = 1.32

Log: Rac GTPase-activating protein 1 (Homo sapiens), compound O=C1NN(c2ccc(F)cc2)C(=O)/C1=C\C=C\c1ccco1 , inhibition = 8.7

Log: Rac GTPase-activating protein 1 (Homo sapiens), compound O=C(N/C(=C/c1ccccc1)C(=O)N1CCCCCC1)c1ccccc1 , inhibition = 4.23

Log: Rac GTPase-activating protein 1 (Homo sapiens), compound C[C@H](CO)N1C[C@H](C)[C@@H](CN(C)C(=O)Nc2ccc(C(F)(F)F)cc2)Oc2c(NC(=O)CCC(F)(F)F)cccc2C1=O , inhibition = 3.3

Log: Rac GTPase-activating protein 1 (Homo sapiens), compound CCn1cc(CNC(=O)C2CCC(=O)N(CCc3cccc(F)c3)C2)cn1 (stereo not drawn) , inhibition = 4.69

Log: Rac GTPase-activating protein 1 (Homo sapiens), compound O=C(c1cccc(Cl)c1)N1CCN(Cc2ccc3c(c2)OCO3)CC1 , inhibition = 7.04

Log: Rac GTPase-activating protein 1 (Homo sapiens), compound CCN(CC)C(=O)CSc1nc2ccccc2c(=O)n1-c1ccccc1OC , inhibition = -9.96

Log: Rac GTPase-activating protein 1 (Homo sapiens), compound N#CCCNc1ccc(OCCC#N)cc1 , inhibition = 11.4

Log: Rac GTPase-activating protein 1 (Homo sapiens), compound Cc1cc(OC(C)C(=O)NCc2ccccn2)c2c(C)cc(=O)oc2c1 (stereo not drawn) , inhibition = 0.55

Log: Rac GTPase-activating protein 1 (Homo sapiens), compound Cn1c(-c2ccc(F)cc2)cnc1NCc1ccc(C#N)cc1 , inhibition = 24.6

Log: Rac GTPase-activating protein 1 (Homo sapiens), compound Cc1ccnc(Nc2nc(-c3ccc(F)cc3)cs2)c1 , inhibition = 7.49

Log: Rac GTPase-activating protein 1 (Homo sapiens), compound CC1NC(=O)c2cc3ccccc3cc2-n2c1nc1cc(Cl)ccc1c2=O (stereo not drawn) , inhibition = 9.82

Log: Rac GTPase-activating protein 1 (Homo sapiens), compound OC1CCN(Cc2cccc3ccccc23)CC1 , inhibition = 14.2

Log: Rac GTPase-activating protein 1 (Homo sapiens), compound COc1ccc(-c2cc([C@H]3[C@H]4C=CC[C@@H](C)[C@@H]4C(=O)N3Cc3ccccc3)ccc2F)cc1 , inhibition = 4.49

Log: Rac GTPase-activating protein 1 (Homo sapiens), compound Cc1cccc(NC(=O)CN2CCN(C(=O)CN3C(=O)NC4(CCCCC4C)C3=O)CC2)c1C (stereo not drawn) , inhibition = 7.46
